The reported measurements were obtained from BindingDB's records for doi:10.1021/jm021113r.

# pKi values compiled below
# measured.target: Nischarin / imidazoline I1 receptor (Rattus norvegicus)
# method.notes: Displacement of [125I]p-iodoclonidine from imidazoline receptor I-1 in rat pheochromocytoma cells
A value of pKi is the negative decimal logarithm of a concentration given in moles per litre.

Identify measured pKi corresponding to c1ccc(CCC2=NCCN2)cc1 [2-Phenethyl-4,5-dihydro-1H-imidazole] 5.43

Supply measured pKi of `C[C@@H](CC1=NCCN1)c1ccccc1` in your reply. 5.14

Tell me pKi reported for `C[C@H](CC1=NCCN1)c1ccccc1` 6.23

Respond only with pKi recorded for CC(CC1=NCCN1)c1ccccc1 (stereo not given) 5.22

Return pKi (reported value) for this molecule: CC(Oc1ccccc1)C1=NCCN1 (stereo not given) 6.51
